system: HIPK1; conditions: concentration: 1 μM, replicates: in singlicate; n = 1;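 further: KINOMEscan kinase panel screen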
Reported Property: %Inh (%)
Enter your answer as a number in %; do not include the unit.

Req: Provide value of %Inh for this record tested with HIPK1: CN(C)CCNS(=O)(=O)c1ccc(-c2ccnc3[nH]ccc23)cc1
Resp: 82

Req: Provide value of %Inh for this record tested with HIPK1: CCNC(=O)/C=C/c1n[nH]c2cc(Sc3ccccc3C(=O)NC)ccc12
Resp: 23

Req: Provide value of %Inh for this record tested with HIPK1: Cc1ccc(Nc2ccnc(Nc3ccc(C)c(F)c3)n2)cc1O.Cl
Resp: 0

Req: Provide value of %Inh for this record tested with HIPK1: Cc1nn2c(=O)cc(N3CCO[C@H](C)C3)nc2n1Cc1cccc(Cl)c1Cl
Resp: 10

Req: Provide value of %Inh for this record tested with HIPK1: CN1CCN(Cc2ccc(NC(=O)Nc3ccc(N(C)c4ccnc(Nc5ccc(CS(C)(=O)=O)cc5)n4)cc3)cc2)CC1.Cl
Resp: 83

Req: Provide value of %Inh for this record tested with HIPK1: Cc1cccc(Nc2nc(N[C@H]3CCCC[C@H]3N)ncc2C(N)=O)c1.Cl
Resp: 0

Req: Provide value of %Inh for this record tested with HIPK1: N#Cc1cnc2cc(-c3cnc(CNCCN4CCOCC4)s3)ccc2c1Nc1ccc(Oc2ccccc2)cc1
Resp: 0
